Exercise: for every item that follows, state its recorded EC50.
molecular target: CFTR G551D mutant (Homo sapiens, UniProt P13569, G551D); experiment: YFP-halide influx assay for the CFTR-G551D mutation (HEK293 cells); details: forskolin 10.67 μM
Sequence (P13569 whole entry G551D): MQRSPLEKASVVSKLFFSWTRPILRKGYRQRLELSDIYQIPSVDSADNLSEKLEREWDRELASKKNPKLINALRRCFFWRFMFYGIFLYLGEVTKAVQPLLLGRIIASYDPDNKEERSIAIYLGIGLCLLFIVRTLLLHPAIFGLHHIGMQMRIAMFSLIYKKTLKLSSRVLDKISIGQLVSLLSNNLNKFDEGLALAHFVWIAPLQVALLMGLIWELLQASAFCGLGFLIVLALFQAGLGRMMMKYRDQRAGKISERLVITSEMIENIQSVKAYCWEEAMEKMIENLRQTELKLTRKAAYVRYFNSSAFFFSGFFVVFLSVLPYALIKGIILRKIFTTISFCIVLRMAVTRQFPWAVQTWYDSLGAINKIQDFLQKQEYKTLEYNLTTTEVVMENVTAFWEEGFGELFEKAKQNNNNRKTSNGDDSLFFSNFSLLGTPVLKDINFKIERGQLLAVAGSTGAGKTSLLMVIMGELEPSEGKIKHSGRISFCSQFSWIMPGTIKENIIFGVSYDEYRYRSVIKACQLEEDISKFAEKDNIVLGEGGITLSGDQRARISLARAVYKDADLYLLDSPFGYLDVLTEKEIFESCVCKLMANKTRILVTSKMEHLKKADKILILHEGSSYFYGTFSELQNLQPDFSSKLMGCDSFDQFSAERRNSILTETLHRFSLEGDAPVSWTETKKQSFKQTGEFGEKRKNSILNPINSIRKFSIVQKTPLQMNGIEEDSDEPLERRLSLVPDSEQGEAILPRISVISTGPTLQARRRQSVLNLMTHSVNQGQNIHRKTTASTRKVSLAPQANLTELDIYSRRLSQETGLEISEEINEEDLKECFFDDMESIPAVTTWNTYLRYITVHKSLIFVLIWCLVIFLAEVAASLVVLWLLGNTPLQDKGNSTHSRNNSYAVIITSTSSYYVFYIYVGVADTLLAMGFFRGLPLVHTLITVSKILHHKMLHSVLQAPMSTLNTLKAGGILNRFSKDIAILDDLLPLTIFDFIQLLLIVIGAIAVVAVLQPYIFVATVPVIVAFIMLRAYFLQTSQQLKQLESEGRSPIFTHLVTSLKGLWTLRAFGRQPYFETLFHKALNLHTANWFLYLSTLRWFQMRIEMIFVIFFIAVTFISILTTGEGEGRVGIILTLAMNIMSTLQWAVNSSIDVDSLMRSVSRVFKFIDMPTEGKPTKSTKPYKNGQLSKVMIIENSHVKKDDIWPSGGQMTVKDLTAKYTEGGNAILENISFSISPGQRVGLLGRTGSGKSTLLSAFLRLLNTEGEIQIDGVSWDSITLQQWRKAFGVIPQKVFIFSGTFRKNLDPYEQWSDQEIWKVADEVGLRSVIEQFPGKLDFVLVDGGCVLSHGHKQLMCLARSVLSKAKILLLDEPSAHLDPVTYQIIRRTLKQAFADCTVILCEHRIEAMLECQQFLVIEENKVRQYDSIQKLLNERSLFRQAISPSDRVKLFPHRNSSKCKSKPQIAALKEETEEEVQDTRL

Examples with answers:
Task: Hi! What's the reported EC50 for CN(Cc1ccc(F)c(F)c1)S(=O)(=O)c1cnc(C(=O)NCC(O)C(F)(F)F)c(N)c1 (centres unmarked) on CFTR G551D mutant (Homo sapiens, UniProt P13569, G551D)?
Output: > 3.33 µM

Task: EC50 of `Nc1cc(S(=O)(=O)c2ccc(C(F)(F)F)cc2F)cnc1C(=O)NC[C@@H]1CCOC1` on CFTR G551D mutant (Homo sapiens, UniProt P13569, G551D)?
Output: > 10 µM

Task: What value of EC50 on CFTR G551D mutant (Homo sapiens, UniProt P13569, G551D) does Nc1cc(S(=O)(=O)c2ccc(C(F)(F)F)cc2)cnc1C(=O)NCC(O)COCC(F)(F)F (centres unmarked) have?
Output: 0.523 µM

Task: Field: EC50 (CFTR G551D mutant (Homo sapiens, UniProt P13569, G551D)). Entry: `COC[C@H](O)CNC(=O)c1ncc(S(=O)(=O)c2ccc(C(F)(F)F)cc2)cc1N`
Output: 0.864 µM

Task: Quick check: EC50 on CFTR G551D mutant (Homo sapiens, UniProt P13569, G551D), item `C[C@H]1CCCN1S(=O)(=O)c1cnc(C(=O)NCc2nccc(=O)[nH]2)c(N)c1` ?
Output: > 10 µM

Lab note: each compound below needs its EC50 filled in.
1. COc1ccnc(CNC(=O)c2ncc(S(=O)(=O)N3CCC[C@@H]3C)cc2N)n1
2. CC(C)(O)C1CN(C(=O)c2ncc(S(=O)(=O)c3ccc(OC(F)(F)F)cc3F)cc2N)C1
3. C[C@H]1CCCN1S(=O)(=O)c1cnc(C(=O)N2CC(C(N)=O)C2)c(N)c1
4. CN1CC[C@H](NC(=O)c2ncc(S(=O)(=O)c3ccc(OC(F)(F)F)cc3)cc2N)C1
5. CN1CCC(O)(CNC(=O)c2ncc(S(=O)(=O)c3ccc(C(F)(F)F)cc3)cc2N)CC1
6. CC(C)C[C@H](CO)NC(=O)c1ncc(S(=O)(=O)c2ccc(OC(F)(F)F)cc2)cc1N

Output:
1. > 3.33 µM
2. 0.371 µM
3. > 10 µM
4. > 10 µM
5. > 10 µM
6. > 10 µM
